# Lookup of reported pIC50 keyed by entry
target: NRAS Q61R (Homo sapiens (Human), UniProt P01111+P62937, Q61R); test: Ras-Raf (BRAF RBD) disruption / FRET / MOA assay, NRAS Q61R; assay type: biochemical; conditions: NRAS Q61R; Ras-Raf disruption/FRET/MOA assay; read-out: IC50* NRAS Q61R FRET data
Sequence (P01111 whole entry Q61R): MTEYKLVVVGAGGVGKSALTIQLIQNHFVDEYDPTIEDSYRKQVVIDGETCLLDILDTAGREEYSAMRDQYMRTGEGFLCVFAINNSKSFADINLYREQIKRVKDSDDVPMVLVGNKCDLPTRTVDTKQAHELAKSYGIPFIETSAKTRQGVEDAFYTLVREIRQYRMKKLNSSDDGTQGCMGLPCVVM
Sequence (P62937 whole entry): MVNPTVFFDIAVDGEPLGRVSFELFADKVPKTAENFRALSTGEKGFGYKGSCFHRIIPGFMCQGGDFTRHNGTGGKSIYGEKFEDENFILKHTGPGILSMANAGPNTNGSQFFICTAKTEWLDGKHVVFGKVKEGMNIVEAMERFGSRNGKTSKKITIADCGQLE
pIC50: −log10 of the molar value.

COMPOUND	pIC50
C=CC(=O)N1CCC(F)(C(=O)N(C)[C@H](C(=O)N[C@H]2Cc3nc(cs3)-c3ccc4c(c3)c(c(-c3cccnc3[C@H](C)OC)n4CC)CC(C)(C)COC(=O)[C@@H]3CCCN(N3)C2=O)C(C)C)CC1 (atropisomer, axis not shown)	6.00 to 7.00
C=CC(=O)N1CCO[C@H]2CN(C(=O)N(C)[C@H](C(=O)N[C@H]3Cc4nc(cs4)-c4ccc5c(c4)c(c(-c4cccnc4[C@H](C)OC)n5CC)CC(C)(C)COC(=O)[C@@H]4CCCN(N4)C3=O)C(C)C)C[C@H]21 (atropisomer, axis not shown)	6.00 to 7.00
CCn1c(-c2cccnc2[C@H](C)OC)c2c3cc(ccc31)-c1csc(n1)C[C@H](NC(=O)[C@@H](COC1CN(C(=O)C#CC(C)(C)N(C)C)C1)C(C)C)C(=O)N1CCC[C@H](N1)C(=O)OCC(C)(C)C2 (atropisomer, axis not shown)	< 5.00
CCn1c(-c2cccnc2[C@H](C)OC)c2c3cc(ccc31)-c1cccc(c1)C[C@H](NC(=O)[C@@H](COC1CN(C(=O)C#CC(C)(C)N(C)CCO)C1)C(C)C)C(=O)N1CCC[C@H](N1)C(=O)OCC(C)(C)C2 (atropisomer, axis not shown)	< 5.00
